Test system: mRNA within LNP formulations
Test: Screen of molecular dyes on mRNA stability within LNP formulations (RP-HPLC)
Format: physicochemical
Settings: main peak purity, 2 mM dye, 4 days at 40° C.; ±4% interpreted as significant
measurement_name: Difference relative to No Dye (%)

| compound | unit_tag | measured_value |
| --- | --- | --- |
| Cc1c(C(=O)O)c(O)cc2c1C(=O)c1c(O)c(C3O[C@H](CO)[C@@H](O)[C@H](O)[C@H]3O)c(O)c(O)c1C2=O (stereo in doubt) | % | −1 |

(P) Cc1cc2nc3ccc(=[N+](C)C)cc-3[nH]c2cc1N
(Q) CN(C)c1ccc2cc3ccc(=[N+](C)C)cc-3oc2c1.[Cl-]
(R) Cc1cc2nc3ccc(N(C)C)cc3[s+]c2cc1N
Please order the records by their reported Difference relative to No Dye, lowest number first. # answer = labels listed in requested order P, Q, R
(P: −16%, Q: −6%, R: 0%)

* * *

System: mRNA within LNP formulations
Assay: Screen of molecular dyes on mRNA stability within LNP formulations (RP-HPLC)
Assay type: physicochemical
Conditions: 2 mM dye in mRNA-LNP, RP-HPLC; no value (—) = physically unstable, no reliable chromatographic result, interpreted as destabilizing
measurement_name: Main Peak Purity after 4 days at 40° C. (%)

These recorded examples may help you get a feel for the data.
| compound | measured_value |
| --- | --- |
| CCN(CC)c1ccc2nc3c4ccccc4c(=O)cc-3oc2c1 | 77.56 |
| CNc1ccc2nc3ccc(=[N+](C)C)cc-3sc2c1 | 90.16 |
| Cc1cc2nc3cc(C)c(N)cc3[n+](-c3ccccc3)c2cc1N | 89.14 |
| O=[N+]([O-])[O-].[Ag+] [Silver nitrate (0.1 N), Silver nitrate] | 77.90 |
| CCN(CC)c1ccc2nc3c4ccccc4c(=N)cc-3oc2c1 | 70.75 |

(P) CCNc1cc2[s+]c3cc(NCC)c(C)cc3nc2cc1C
(Q) CN(C)c1ccc(C(=C2C=CC(=[N+](C)C)C=C2)c2ccc(N(C)C)cc2)cc1
Hey, between P and Q which has a smaller measured Main Peak Purity after 4 days at 40° C. (%)? // caller expects the label of the chosen entry Q
(Q: 24.79%, P: 68.61%)

* * *

System: mRNA within LNP formulations
Experiment: Screen of molecular dyes on mRNA stability within LNP formulations (RP-HPLC)
Format: physicochemical
Settings: 2 mM dye in mRNA-LNP, RP-HPLC; no value (—) = physically unstable, no reliable chromatographic result, interpreted as destabilizing
Counter-ions that a name gives are not always drawn.
measurement_name: Main Peak Purity after 4 days at 40° C. (%)

| compound | unit_tag | measured_value |
| --- | --- | --- |
| Oc1cc2c(cc1O)[C@@H]1c3ccc(O)c(O)c3OC[C@]1(O)C2 | % | 39.82 |
| Cc1cc2nc3ccc(=[N+](C)C)cc-3[nH]c2cc1N | % | 59.34 |
| Cc1cc2nc3ccc(N(C)C)cc3[s+]c2cc1N | % | 74.66 |
| CN(C)c1ccc2nc3ccc(N)cc3[s+]c2c1 [Azure A chloride] | % | 90.36 |
| O=C(O)c1ccccc1-c1c2cc([N+](=O)[O-])c(=O)c(Br)c-2oc2c(Br)c(O)c([N+](=O)[O-])cc12 | % | 78.00 |
| Cc1c(C(=O)O)c(O)cc2c1C(=O)c1c(O)c(C3O[C@H](CO)[C@@H](O)[C@H](O)[C@H]3O)c(O)c(O)c1C2=O (stereo in doubt) | % | 74.27 |
| CN(C)c1ccc2cc3ccc(N(C)C)cc3nc2c1 [Acridine Orange hydrochloride hydrate] | % | 69.92 |
| CN(C)c1ccc2cc3ccc(=[N+](C)C)cc-3oc2c1.[Cl-] | % | 68.68 |

* * *

Test system: mRNA within LNP formulations
Assay: Screen of molecular dyes on mRNA stability within LNP formulations (RP-HPLC)
Format: physicochemical
Conditions: main peak purity, 2 mM dye, 4 days at 40° C.; ±4% interpreted as significant
measurement_name: Difference relative to No Dye (%)

| molecule | Difference relative to No Dye (%) |
| --- | --- |
| O=C(O)c1ccccc1-c1c2cc([N+](=O)[O-])c(=O)c(Br)c-2oc2c(Br)c(O)c([N+](=O)[O-])cc12 | 3 |

(P) CN(C)c1ccc2nc3ccc(N)cc3[s+]c2c1 [Azure A chloride]
(Q) CN(C)c1ccc(C(=C2C=CC(=[N+](C)C)C=C2)c2ccc(N(C)C)cc2)cc1
Form: Entry with minimum Difference relative to No Dye (choose one): P / Q Answer = label. Q
(Q: −50%, P: 15%)

* * *

Test system: mRNA within LNP formulations
Experiment: Screen of molecular dyes on mRNA stability within LNP formulations (RP-HPLC)
Format: physicochemical
Conditions: main peak purity, 2 mM dye, 4 days at 40° C.; ±4% interpreted as significant
measurement_name: Difference relative to No Dye (%)

Example entries and their recorded answers appear below.
| compound | Difference relative to No Dye [%] |
| --- | --- |
| Oc1cc2c(cc1O)[C@@H]1c3ccc(O)c(O)c3OC[C@]1(O)C2 | −35 |
| O=[N+]([O-])[O-].[Ag+] [Silver nitrate (0.1 N), Silver nitrate] | 3 |
| CCN(CC)c1ccc2nc3c4ccccc4c(=O)cc-3oc2c1 | 3 |
| CNc1ccc2nc3ccc(=[N+](C)C)cc-3sc2c1 | 15 |

(P) CN(C)c1ccc2nc3ccc(N(C)C)cc3[s+]c2c1
(Q) CCN(CC)c1ccc2nc3c4ccccc4c(=N)cc-3oc2c1
Return label of the item with the larger Difference relative to No Dye. Candidates: P , Q . Please reply using the label of the selected record. P

(a) Cc1cc2nc3cc(C)c(N)cc3[n+](-c3ccccc3)c2cc1N
(b) CCNc1cc2[s+]c3cc(NCC)c(C)cc3nc2cc1C
Lab note: check whether a or b has the lower measured Difference relative to No Dye. Mark your selection by writing its label. b

Taken from patent US20230190761A1.
